// provenance: PubChem BioAssay (NCI)

System: K-562 leukemia
Assay: NCI tumour cell line growth inhibition, 48 h; in the data active means GI50 below about 0.43 µM; inactive means the rest
Outcomes: active, inactive

COMPOUND | CLASS_NAME
Cc1ncc(C(=O)Nc2ccc(CN3CCN(C)CC3)c(C(F)(F)F)c2)cc1C#Cc1ccc(N)nc1 | active
CCC(C)Oc1nc2c(c(=O)n(C)c(=O)n2C)n1C (centres undefined) | inactive
CC1=C2C(=CC(C)(C)[C@@H]2O)C(=O)[C@](C)(O)C12CC2 | active
c1cc(-c2nnc(SSc3ncnc4nc[nH]c34)o2)ccn1 | active
CCCCCCCCOC(=O)c1c(C)[nH]c(/C=C2\N=C(c3ccc[nH]3)C=C2OC)c1C | active
CCN1CCN(Cc2ccc(NC(=O)Nc3nc4ccc(Oc5ccnc(C(=O)NC)c5)cc4s3)cc2C(F)(F)F)CC1 | active
COc1ccc2c(c1OC)-c1c(c3ccc([N+](=O)[O-])cc3c(=O)n1CCCBr)C2=O | inactive
O=C(Nc1ccc(-n2ccc3c(NC(=O)c4ccccc4)ncnc32)cc1)c1cccc(C(F)(F)F)c1 | active
COC(=O)C12CC(NC(=O)c3csc([C@@H](C[C@H](C(C)C)N(C)C(=O)[C@@H](NC(=O)[C@H]4CCCCN4C)C4CC4)OC(C)=O)n3)(C1)C2 | active

====

Tested on: OVCAR-3 ovarian
Test: NCI tumour cell line growth inhibition, 48 h
The following compounds are shown together with reported TGI values.

COMPOUND | TGI
NS(=O)(=O)c1ccc(N=Nc2c(O)[nH]c3ccc(C(=O)NCc4ccncc4)cc23)cc1 | > 25 µM
CC1(C)C(CCO)CC1n1ccc(=O)[nH]c1=O (stereo not drawn) | > 100 µM
COCC1OC(S(=O)(=O)c2ccccc2)C(O)C(OC)C1OC (stereo not drawn) | > 100 µM
Cc1ccc(NC2=NCCO2)c2c1CCC2 | 67.9 µM
COc1ccc2c(c1)OCCc1cn[nH]c1-2 | > 100 µM
C=C1[C@@](C)([C@@H]2CCCS2)[C@H]2C(C)=C[C@]1(C)n1c(=O)n(-c3ccccc3)c(=O)n12 | > 100 µM
CC(C)OP(=O)(OC(C)C)C1=NN(c2ccc([N+](=O)[O-])cc2)C(P(=O)(OC(C)C)OC(C)C)=NN1c1ccc([N+](=O)[O-])cc1 | > 100 µM
O=C1C[C@@H]2[C@@H](CCC23CC3)N1 | > 100 µM

====

Tested on: MDA-MB-231 breast
Test: NCI tumour cell line growth inhibition, 48 h
VALUE_KIND: TGI

COMPOUND | OBSERVED
COC(=O)C(=O)C(C(=O)C(=O)Nc1cccc([N+](=O)[O-])c1)c1nc2ccc(Cl)cc2[nH]c1=O (stereo not given) | > 100 µM
Nc1ccc(Nc2cc(=O)[nH]c(=O)[nH]2)cc1 | > 100 µM
CC(=O)OC1C2CCC3C(C)(O)C4CC(O)C(C)(C)C4(O)C(O)CC13CC2(C)O (stereo not given) | > 100 µM
CC(C)(C)CC(C)(C)NC(=S)NO | > 100 µM
Cc1c(OCc2ccccc2)c(=O)ccn1CCc1c[nH]c2ccccc12 | > 100 µM
C[N+](C)(C)C=Nc1cccc2c1CCCC2 | > 100 µM
O=C(O)CC[P+](c1ccccc1)(c1ccccc1)c1ccccc1 | > 100 µM
COc1cccc(CN(C)c2ccc(CO)c(Cl)c2)c1 | > 100 µM
CCN1CCN(c2cc(C)nc(N(CCCNc3ccnc4cc(Cl)ccc34)Cc3ccc4c(c3)OCO4)n2)CC1 | 4.44 µM
Cc1ncc(C(=O)Nc2ccc(CN3CCN(C)CC3)c(C(F)(F)F)c2)cc1C#Cc1ccc(N)nc1 | 0.711 µM
Cc1nc2ccc(Br)cc2c(=O)n1-c1ccc(NC2OCC(O)C(O)C2O)cc1 (stereo not given) | > 100 µM
CC12CCCCC1=[N+]([O-])C(C)(C)N2O (stereo not given) | > 100 µM
NS(=O)(=O)c1ccc(N=Nc2c(O)[nH]c3ccc(C(=O)NCc4ccncc4)cc23)cc1 | > 25 µM
CC(=O)OC12c3ccccc3C(c3ccccc31)C1C(=O)N(c3ccccn3)C(=O)C12 (stereo not given) | > 100 µM
CCOc1ccc(/C(C=O)=C(\Cl)c2ccc(OC)cc2)cc1 | > 100 µM
Cn1c(=O)c2[nH]c(SCCN3CCOCC3)nc2n(C)c1=S | > 100 µM
Cc1ccc2nc(-c3ccc(OCC(=O)N=Nc4c(O)[nH]c5ccccc45)cc3)[nH]c2c1 | 3.93 µM
CO[C@H]1O[C@@H]2CO[C@@H](c3ccccc3)O[C@H]2[C@@H]2C/C=C\CCC[C@@]12O | 68.4 µM
C=C/C(C)=C/C[C@]1(C)[C@H](C)[C@@H](OC(=O)CCC)[C@H](O)[C@@]23C(=C[C@H](OC)C[C@@H]12)[C@@H](OC(=O)CCC)O[C@H]3OC(C)=O | 2.45 µM
COCC1OC(S(=O)(=O)c2ccccc2)C(O)C(OC)C1OC (stereo not given) | > 100 µM
